Test: Solubility of quercetin in water and HEPES buffer saline
Format: physicochemical
Settings: 60 °C, water, thermodynamic from solid
MEASURED PROPERTY: solubility at 60 min (µg/mL)
Numbers only, in µg/mL.

Request: Quick one: solubility at 60 min of O=c1c(O)c(-c2ccc(O)c(O)c2)oc2cc(O)cc(O)c12 ?
Result: 12.3
